quantity-kind: melting point

• CC(C)c1cccc(C(C)C)c1NC(=O)CN1C(=O)N(c2ccc(S(C)(=O)=O)cc2)C2(CCCCC2)C1=O = 250 °C
• CC(C(=O)O)c1ccc(-c2ccc(F)cc2F)cc1 (stereo not given) = 110 to 113 °C
• COc1ccccc1Sc1c(Cl)nc(C)nc1Cl = 140 °C
• CC(C)(C(=O)c1ccccc1)n1cncn1 = 134 to 135 °C
• CCC(CC)(CC(=O)Nc1cccc(OCc2ccc3ccc(OCc4ccccc4)cc3n2)c1)C(=O)O = 89 to 95 °C
• CC(C)(C)c1cc(SCC(=O)Nc2c(Cl)cccc2Cl)cc(C(C)(C)C)c1O = 168 to 170 °C
• Nc1cc([N+](=O)[O-])c2c(c1N)CCCC2 = 181 to 182 °C
• CCCCCCCCCCCCCCCCCCOC(=O)CBr = 37 to 40 °C
• O=C(c1ccc2c(c1)OCCOCCOCCOCCOCCO2)c1ccccn1 = 78 to 80 °C
• CN1CCC(C2Oc3cc(F)ccc3Cn3cccc32)CC1 (stereo not given) = 115 to 120 °C

----------
Below, each entry is listed with its recorded melting point.
quantity-kind: melting point

- CCOC(=O)c1cn(Cc2ccccc2)c2c(OC)c(F)c(F)c(N)c2c1=O: 134 to 135 °C
- c1ccc(C2NCCc3ccccc32)nc1 (racemic): 124 °C
- O=C(O)Cc1ccc2[nH]c(=O)[nH]c2c1: 161 °C
- COC(=O)C=Cc1ccc(OCc2nc(-c3ccco3)oc2C)c(OC)c1: 129 to 130 °C
- COc1cc(C(=O)c2c(C)c(OCCO)c3ccccn23)ccc1[N+](=O)[O-]: 142 °C
- COc1ccc2c(c1)C(=O)N(c1ccc3c(cnn3C)c1)C2: 213 to 214 °C
- COC(=O)C(C#N)CC(=S)c1ccc(C)cc1 (stereo unspecified): 88 to 90 °C
- Fc1cc(Cc2cccs2)c(Cl)cc1Cl: 60 to 61 °C
- O=S(=O)(/C=C/c1ccccc1)Nc1ccc(Cl)cc1: 107 to 109 °C
- Brc1cccc2[nH]c(-c3ccccc3)c(CCN3CCCCC3)c12: > 230 °C
- CCNC(=O)c1cccc(F)c1N: 60 °C

----------
quantity-kind: melting point

- COC(=O)C1=C(C)NC(C)=C(C(=O)OCCN2C(=O)c3ccccc3C2=O)C1c1cccc(C)c1 (stereo not given): 188 to 190 °C
- NN1C=Nc2ccc(Cl)cc2C1(O)c1ccccc1 (stereo not given): 157 to 158 °C
- C=CCC(NC(=O)c1ccc(OC)cc1)C(C)=O (stereo not given): 58 to 59 °C
- Cc1cc(C2=NOC(c3cc(Cl)cc(Cl)c3)(C(F)(F)F)C2)ccc1C(=O)Cl (stereo not given): 140 to 143 °C
- CCOC(=O)C(=O)c1cccc(NC=O)n1: 124 to 126 °C

----------
Non-standard residues stand in square brackets, D forms with d. Residues, ends and D or L forms follow the SMILES beside them. *: point of attachment. Tos = Cc1ccc(S(=O)(=O)*)cc1; Sar = CNCC(=O)O
Listed next: entries and their corresponding melting point.
quantity-kind: melting point

• CC(CCc1cccc(F)c1)NCc1c(CO)ccc(O)c1CO (centres undefined) = 114 to 117 °C
• Nc1ncc2ncn([C@H]3C=C[C@@H](O)C3)c2n1 (racemic) = 144 to 147 °C
• CC(C)(C)OC(=O)N[C@@H]1CN[C@H]2CCO[C@H]21 (relative stereo) = 110 to 111 °C
• COc1c(C(C)C)cc(S(N)(=O)=O)c(C)c1C(=O)NCC1CCCN1CC1CC1 (centres undefined) = 125 °C
• COCc1cc(C2=C(Cl)CCN(C(=O)c3ccccc3)C2)no1 = 60.5 to 62 °C
• O=C(NCc1ccc(F)cc1)c1ccnc(N2CCN(Cc3ccc(F)cc3)C2=O)c1 = 173 to 175 °C
• Cc1ccc(S(=O)(=O)N(C)CC(=O)N[C@@H](Cc2ccccc2)C(=O)O)cc1 (Tos-[Sar]-Phe-OH) = 128 to 130 °C
• Nc1c(N=Nc2ccc(Cl)cc2)ccc2c(S(N)(=O)=O)cccc12 = 258 °C
• Cc1cc2ccccn2c1C(=O)C1CCc2nc[nH]c2C1 (centres undefined) = 260 to 264 °C

----------
# melting point annotations
quantity-kind: melting point

- CNS(=O)(=O)c1cc2c(cc1CC(=O)O)CCCC2: 153 to 155 °C
- Cc1c(-c2ccncc2)sc2c1C(=O)CCC2: 129 to 130 °C
- NC(=O)c1cccc(-c2nc3sccn3c2-c2ccnc(N[C@@H]3CCCNC3)n2)c1: 202 to 205 °C
- COC(=O)COc1ccc(Cn2c(-c3ccc(C(F)(F)F)cc3)c(C)c3cc(OCc4ccccc4)ccc32)cc1: 221 °C
- Nc1ncc(-c2ccc(F)cc2)nc1C(=O)Nc1cccnc1: 193 to 197 °C
- Cn1cc(Nc2nc(N3CCOCC3)nc(-n3c(C(F)F)nc4ccccc43)n2)cn1: 225 to 226 °C
- COC(=O)c1cc(CBr)cnc1C1=NC(C)(C(C)C)C(=O)N1C(=O)c1ccccc1 (stereo unspecified): 88 to 119 °C
- CC1(C)Cc2cccc(Oc3ccc(N)cc3Cl)c2O1: 102 to 104 °C
- CCCCCCCCCCC(O)C(O)CCC(O)C1CCC(=O)O1 (stereo unspecified): 99 to 100 °C
- COc1cc2c(cc1OC)C1(O)c3ccccc3CCN1C2=O (stereo unspecified): 220 °C
- Cc1ccc(NC(=O)c2cccc(N3CCOCC3)c2)cc1N: 192 to 193 °C
- Cc1c(NC(=O)c2ccc(-c3ccc4c(c3)CCCO4)cc2)ccc2cc(CN3CCCC3)cnc12: 195 to 197 °C
- NNC(=O)Nc1nc2ccccc2[nH]1: 320 to 322 °C
- COCOc1ccc(Cl)cc1-c1cc(-c2cccc(N)c2)c(C#N)c(NC(=O)c2ccccc2)n1: 174 to 175 °C
- CCC1(CC)OC(c2ccc(S(C)(=O)=O)cc2)=C(c2cccc(Cl)c2)C1=O: 131 to 132 °C
- CCC(C)(CC)c1cc(NC(=O)c2c(OC)cccc2OC)sn1: 243 to 244 °C
- Fc1cc(Br)ccc1CSc1nc2cnccc2[nH]1: 204 to 206 °C
- CSc1cc2c(cc1C(F)(F)F)N(C(=O)Nc1ccc(Oc3ccccc3)nc1)CC2: 86 to 88 °C
- Cc1nnc2ccc(-c3cccc(N(C)C(=O)C4CC4)c3)nn12: 169 to 172 °C
- O=C(O)c1ccc(O)c(Nc2cc(Cl)cc(Cl)c2)c1: 166 to 167 °C
- Cc1ccccc1CC1CCN(C(=O)C(=O)Nc2ccc3c(c2)CC(=O)N3)CC1: 211 to 213 °C

----------
Each entry below lists one item and its recorded melting point value.
quantity-kind: melting point

- O=C(C=Cc1ccc(Cl)cc1)C(Cc1ccccc1)c1ccccc1 (stereo not given): 113 to 115 °C
- Cc1nn(-c2ccc(C(=O)O)cc2)c(O)c1-c1c(C)nn(-c2ccc(C(=O)O)cc2)c1O: > 280 °C
- O=C(NOc1ncc(C(F)(F)F)cc1Cl)c1cccc2ccccc12: 198 to 199 °C
- CCCc1c(OCCCOc2cccc3c2CCCC3)ccc2c1OC(CCC(O)CO)(CCC(O)CO)CC2=O (stereo not given): 113 to 115 °C
- Cc1ccc(COc2cccnc2NC(=N)Nc2ccc(Cl)cc2)cc1: 174 to 175 °C
- O=C1OCCCC1=Cc1ccccc1OCC(O)CN1CCC(c2ccc3ccccc3c2)CC1 (stereo not given): 142 to 144 °C
- CC(=O)c1ccc(NS(=O)(=O)N(C)C)cc1: 129 to 130 °C
- CCCCc1nc(C(F)(F)F)c(C(=O)OCC)[nH]1: 51 to 53 °C
- CNC(=S)C1=CC(C)(C)Oc2ccc([N+](=O)[O-])cc21: 147 to 148 °C
- O=C(O)Cc1ccccc1OCc1cn(-c2ccc(C(F)(F)F)cn2)nc1C1CCCCC1: 131 to 132 °C
- CC(=O)N(C)Cc1ccc2c(c1)C(Cc1ccnc(F)c1)(Cc1ccnc(F)c1)c1ccccc1-2: 136 to 137 °C
- CCCc1c(OCCOCCOCCOCCOc2ccc3ccc(OCC(=O)O)cc3c2C(C)=O)ccc(C(C)=O)c1O: 57 to 58 °C
- C[C@H](Nc1nc(C#N)nc(Cl)c1-c1c(F)cc(F)cc1F)C(F)(F)F: 134 to 136 °C
- CC(C)OC(=O)C1=C(O)c2ccccc2S(=O)(=O)N1C: 102 to 103 °C
- Cc1ccc(C(O)C2OC2C(C)(C)C)cc1 (stereo not given): 36 to 39 °C
- O=C(OCc1ccccc1)c1ccc(O)cc1O: 83 to 88 °C
- COC(=O)Nc1nc2cc(S(=O)CC(C)C)ccc2[nH]1 (stereo not given): 198 to 201 °C
- O=C(O)CCCCCCCNS(=O)(=O)c1ccc(Br)cc1: 115 to 116 °C
- O=C(O)C(CSc1ncccn1)CS(=O)(=O)c1ccc(-c2ccc(Cl)cc2)cc1 (stereo not given): 166 to 168 °C
- CN(C)CC=CC(=O)Nc1ccc2ncnc(Nc3cccc(Br)c3)c2c1: 215 to 217 °C
- CC(C)N1CC(=O)C(C#N)=C1N: 285 to 290 °C
- FC(F)(F)c1cc(-n2cncn2)c2cccc(C(F)(F)F)c2n1: 106 to 107 °C
- COc1ccc2c(c1[N+](=O)[O-])CN(C(=O)C(F)(F)F)CC(=O)N2C: 71 to 74 °C
- CN(C)C=C(C#N)CC#N: 49 °C
- BrCCCCOc1ccc(OCCCCBr)cc1: 89 to 91 °C
- COCCCNCc1noc([C@H](CCCC2CCCCC2)CC(=O)NO)n1: 60 °C
- Cc1nc(-c2cc3cc(OCCNC[C@H](O)COc4ccccc4Cl)ccc3o2)no1: 106 to 108 °C
- COc1c(N2CC(C)C(N)C(C)(C)C2)c(F)c(N)c2c(=O)c(C(=O)O)cn(C3CC3)c12 (stereo not given): 248 to 252 °C
- C[Si](C)(C)C#Cc1c(C(F)(F)F)nn(-c2c(Cl)cc(C(F)(F)F)cc2Cl)c1N: 120 to 123 °C
- Cc1c(-c2ccc(OC(C)C)cc2)n(Cc2ccc(OCCO)cc2)c2ccc(OCc3ccccc3)cc12: 129 to 131 °C
- N#Cc1cc(C(=O)c2ccc(C(F)(F)F)cc2)cc(O)c1O: 204 to 206 °C
- N#Cc1ccc(Nc2ccc(C(F)(F)F)cc2Nc2ccc(C#N)cc2C(=O)O)c(C(=O)O)c1: 235 to 240 °C
- Cc1nc(Cl)c([N+](=O)[O-])c(N2CCc3ccccc3CC2)n1: 161 to 165 °C
- O=C(NCCCCC(NS(=O)(=O)c1ccc2oc3ccccc3c2c1)C(=O)O)OCc1ccccc1 (stereo not given): 133 to 135 °C
- COC(=O)Nc1ccc(NC(=O)CBr)c([N+](=O)[O-])c1: 160 to 162 °C
- Fc1ccc(-c2ncn(CCCN3CCOCC3)c2-c2ccncc2)cc1: 149 to 150 °C
- COc1cc2[nH]c(=O)c(=O)n(C)c2cc1OC: 308 °C
- CC(C)N(CCC(CC(=O)N1CCCCC1)(C(=O)N(C)C)c1ccccc1)C(C)C (stereo not given): 142 to 145 °C
- CSc1nn2c(N3CCN(CCO)CC3)cc(C)nc2c1S(=O)(=O)c1ccccc1: 189 to 190 °C
- O=C1c2ccccc2C(=O)N1C/C=C/CCl: 108 to 110 °C
